- Target: Gal(a1-3)Gal(b1-4)GlcNAc
- Assay Method Text: glycan array binding signal (z-score within array); higher = stronger binding
- Condition Set: glycan notation: IUPAC condensed, linker removed
The sample as a whole holds a higher share of the strongest signals than the screen did.
Parameter: glycan array binding signal (z-score)
Please state the value as a number alone, without comment.

Alpha-agglutinin (Saccharomyces cerevisiae) (protein) MFTFLKIILWLFSLALASAININDITFSNLEITPLTANKQPDQGWTATFDFSIADASSIREGDEFTLSMPHVYRIKLLNSSQTATISLADGTEAFKCYVSQQAAYLYENTTFTCTAQNDLSSYNTIDGSITFSLNFSDGGSSYEYELENAKFFKSGPMLVKLGNQMSDVVNFDPAAFTENVFHSGRSTGYGSFESYHLGMYCPNGYFLGGTEKIDYDSSNNNVDLDCSSVQVYSSNDFNDWWFPQSYNDTNADVTCFGSNLWITLDEKLYDGEMLWVNALQSLPANVNTIDHALEFQYTCLDTIANTTYATQFSTTREFIVYQGR :: -0.248

# ---- query binder ----
What glycan array binding signal (z-score) value was documented for this binder, DCIR (Homo sapiens), Q9UMR7 (protein) MTSEITYAEVRFKNEFKSSGINTASSAASKERTAPHKSNTGFPKLLCASLLIFFLLLAISFFIAFVIFFQKYSQLLEKKTTKELVHTTLECVKKNMPVEETAWSCCPKNWKSFSSNCYFISTESASWQDSEKDCARMEAHLLVINTQEEQDFIFQNLQEESAYFVGLSDPEGQRHWQWVDQTPYNESSTFWHPREPSDPNERCVVLNFRKSPKRWGWNDVNCLGPQRSVCEMMKIHL ?
0.183
